Assay: Serum concentration after 5 days daily dosing in NSG mice
Assay type: in vivo, mouse
Conditions: NSG, mouse, serum, intraperitoneal, 40 mg/kg
value kind: concentration at 5 h (ng/mL)
Report the figure in ng/mL without appending any unit label.

Record "CC(C)(C)c1ccc(CN(C(=O)CN(Cc2c(F)c(F)c(F)c(F)c2F)S(=O)(=O)c2ccc(F)cc2)c2ccc(C(=O)NO)cc2)cc1" , field concentration at 5 h: 1830

====

Assay: Mouse plasma protein binding assay
Assay type: in vitro ADME
Conditions: both, CD-1, mouse, mouse plasma
value kind: recovery at 6 h

Record CC(C)(C)c1ccc(CN(C(=O)CN(Cc2c(F)c(F)c(F)c(F)c2F)S(=O)(=O)c2ccc(F)cc2)c2ccc(C(=O)NO)cc2)cc1 [AES-135] , field recovery at 6 h: 16 to 20%
